assay: Inhibition of ATP synthase in Mycobacterium smegmatis inverted membrane vesicles using NADH as substrate incubated for 60 mins by luciferin-luciferase reaction based bioluminescence assay; design: species or system Mycolicibacterium smegmatis
Field: label. Allowed values: TRUE (IC50 < 90 nM) or FALSE (IC50 >= 90 nM).

compound	qualitative.label
Clc1ccc2nc(-c3ccccc3)c(OCCCOc3ccccc3)n2c1	TRUE
O=c1c(NCc2ccccc2)c(-c2ccc(N3CCOCC3)cc2)c1=O	FALSE
Cc1ccc2nc(-c3ccc(F)cc3)c(OCCCOc3ccc(C)nc3)n2c1	TRUE
N#Cc1ccc2nc(-c3ccccc3)c(OCCCOc3ccccc3)n2c1	FALSE
Cc1ccc2nc(-c3ccc(F)cc3)c(OCCCN3CCN(c4ccccc4)CC3)n2c1	TRUE
Cc1ccc2nc(-c3ccc(F)cc3)c(OCCCOc3cccnc3)n2c1	FALSE
Cc1cnc(CNc2c(-c3ccc(C(F)(F)F)cc3)c(=O)c2=O)cn1	FALSE
Cc1ccc2nc(-c3ccc(F)cc3)c(OCCNC(=O)c3ccc(C)nc3)n2c1	FALSE
COc1ncc(NCCCOc2c(-c3ccc(F)cc3)nc3ccc(C)cn23)cc1C	TRUE
Cc1ccc2nc(-c3ccccc3)c(OCCCOc3ccccc3)n2c1	TRUE
CC(Nc1c(-c2ccc(N3CCOCC3)cc2)c(=O)c1=O)c1ccccn1 (centres undefined)	FALSE
Cc1ccc2nc(-c3ccc(F)cc3)c(OCCCNc3ccc(F)c(C)c3)n2c1	TRUE
COCCCOc1c(-c2ccccc2)nc2ccccn12	FALSE

----------
Quick list: MIC80 per entry.
test system: Mycobacterium tuberculosis; assay: Antimycobacterial activity against Mycobacterium tuberculosis H37Rv by turbidometric method; type: functional
property.measured: MIC80

molecule	system.under.test	result
CC(Nc1c(-c2ccc(N3CCOCC3)cc2)c(=O)c1=O)c1ccccn1 (centres undefined)	Mycobacterium tuberculosis	> 100 µM
Cc1ccc2nc(-c3ccc(F)cc3)c(OCCCOc3cccnc3)n2c1	Mycobacterium tuberculosis	< 0.9 µM
Cc1ccc2nc(-c3ccc(F)cc3)c(OCCCNc3ccc(F)c(C)n3)n2c1	Mycobacterium tuberculosis	< 0.5 µM
Cc1ccc2nc(-c3ccc(F)cc3)c(OCCCOc3cncc(F)c3)n2c1	Mycobacterium tuberculosis	< 0.6 µM
